Read-out: Caspase-3 (Homo sapiens)
Measurement Notes: LTEA_HepaRG_CASP3: Life Technologies and Expression Analysis (LTEA) Assay for cysteine-aspartic acid protease (CASP3) using HepaRG (AID 2283477)
Experimental Setup: mRNA level, 48 h; actives raise or lower the signal
Calls of active or inactive are those of the source. How the source made its calls: active means hit-call score of the fitted dose curve at least 0.9, where 1 is the maximum; inactive means score below 0.9.
Measured Metric: outcome

CCOP(=S)(OCC)Oc1cc(C)nc(C(C)C)n1 : inactive
O=[N+]([O-])c1cc(C(F)(F)F)c(Cl)c([N+](=O)[O-])c1Nc1ncc(C(F)(F)F)cc1Cl : inactive
CN(C)[C@@H]1C(=O)C(C(N)=O)=C(O)[C@@]2(O)C(=O)C3=C(O)c4c(O)cccc4[C@@](C)(O)[C@H]3[C@H](O)[C@@H]12 : inactive
